- TESTED SYSTEM: T1, human EphA2 (Homo sapiens, UniProt P29317)
- T1 construct: a protein of the extracellular region of each human Eph receptor fused with the SEAP protein and the His tag; made in house; host or cells: Expi293F cells (culture supernatant)
- T1 sequence (P29317 24-537 limits assumed): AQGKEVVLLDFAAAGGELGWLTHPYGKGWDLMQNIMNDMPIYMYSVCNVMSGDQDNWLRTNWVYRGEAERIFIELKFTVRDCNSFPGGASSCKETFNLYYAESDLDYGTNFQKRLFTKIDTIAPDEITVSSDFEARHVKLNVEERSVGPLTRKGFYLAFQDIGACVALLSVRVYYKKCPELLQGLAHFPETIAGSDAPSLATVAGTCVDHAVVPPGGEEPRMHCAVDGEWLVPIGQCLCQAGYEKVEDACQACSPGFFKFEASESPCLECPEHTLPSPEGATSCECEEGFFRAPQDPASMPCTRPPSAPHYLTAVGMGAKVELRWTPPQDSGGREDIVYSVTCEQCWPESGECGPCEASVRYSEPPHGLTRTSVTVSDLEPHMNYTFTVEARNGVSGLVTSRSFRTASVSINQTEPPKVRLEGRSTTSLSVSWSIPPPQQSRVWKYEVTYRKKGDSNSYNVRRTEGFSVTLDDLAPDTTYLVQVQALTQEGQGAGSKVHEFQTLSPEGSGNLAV
- TEST NAME: Selectivity ELISA of humanized antibodies for human Eph receptor
- Assay type: binding
- PROTOCOL CONDITIONS: coated protein 1 nM
- Source text: According to the method described in Example 7, a DNA sequence encoding the signal sequence and the extracellular region of each human Eph receptor (EphA1, EphA2, EphA3, EphA4, EphA5, EphA6, EphA7, EphA8, EphA10, EphB1, EphB2, EphB3, EphB4, and EphB6) was amplified by RT-PCR using tissue-derived total RNA and cloned into a pENTR1A vector (Invitrogen/Life Technologies) having a DNA sequence encoding SEAP protein and histidine tag. […]
ENDPOINT: hEphA2-SEAP-: absorbance at 450 nm, percentage with respect to hEphA4-SEAP-His as 100% (%)
Response body: numeric value in %, unit text excluded.

Asked: Give its hEphA2-SEAP-: absorbance at 450 nm, percentage with respect to hEphA4-SEAP-His as 100% value. Item: 142 (antibody, V domains shown, synthetic humanized antibody heavy chain variable region sequence; synthetic humanized antibody light chain variable region sequence) VH: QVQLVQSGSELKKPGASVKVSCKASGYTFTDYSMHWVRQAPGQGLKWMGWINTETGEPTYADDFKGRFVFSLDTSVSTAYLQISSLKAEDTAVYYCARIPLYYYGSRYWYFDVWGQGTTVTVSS VL: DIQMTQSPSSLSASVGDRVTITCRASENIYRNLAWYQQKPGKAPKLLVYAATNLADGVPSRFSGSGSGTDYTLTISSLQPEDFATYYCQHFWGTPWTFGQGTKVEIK
Given back: 5.6
